# Tested on: A498 renal
# Assay Summary: NCI tumour cell line growth inhibition, 48 h; in the data active = GI50 below about 0.43 µM; inactive = the rest
Would you mind answering with one of these outcomes? active, inactive

Worked examples follow.
CCN1C(=O)N(CC)C2C1NN=c1s/c(=C3\C(=O)N(C)c4ccccc43)c(=O)n12 (stereo not drawn) ... active
Cc1cc(N2CCCC2)nc(N(CCCNc2ccnc3cc(Cl)ccc23)Cc2ccc3c(c2)OCO3)n1 ... inactive
Nc1nc(Nc2cccc(F)c2)nc2ccccc12 ... inactive
C[C@H](CS(C)(=O)=O)Nc1ncc2cc(Oc3ccc(F)cc3F)c(=O)n(C)c2n1 ... inactive
O=C(NN1C(=O)CSC1c1ccc(Cl)cc1)c1[nH]c2ccc(F)cc2c1-c1ccccc1 (stereo not drawn) ... inactive
Fc1ccc(Nc2nc(NCCNc3ccnc4cc(Cl)ccc34)nc(N3CCOCC3)n2)cc1 ... inactive

Task: Name the outcome recorded for CC[CH2][Pb]([CH2]CC)([CH2]CC)[NH]S(=O)(=O)c1ccc(C)cc1 in the assay.
Result: active

Task: Fill in: this test's call for CC1=CC(=O)C(C(C)=Nc2ccccc2Cl)C(=O)O1 (stereo not drawn) is ___
Result: inactive

Task: Short answer needed: outcome of this test for C=C(C)CCC(C)N1CCC(N2CCC(C(=O)NCCc3ccccc3)CC2)CC1 (stereo not drawn) ?
Result: inactive

Task: What call does the record list for COc1cc(/C=C(/c2ccccc2)[N+](=O)[O-])c(OC)c2c1OCO2 ?
Result: inactive

Task: Hello, I am checking results. What call was entered for COc1ccccc1-c1c(C)nn2c(NCc3ccccn3)cc(C)nc12 ?
Result: inactive

Task: So what was the verdict on COc1ccc(/C=C2\CCCC3=C2NC(C)=NC3c2ccc(OC)c(OC)c2)cc1OC (stereo not drawn) in this test?
Result: inactive

Task: How did this test come out for CCc1c[nH]c2ncnc(N3CC[C@@](N)(CNC(=O)c4ccc(F)cc4F)C3)c12 ?
Result: inactive

Task: For O=c1oc2ccc(Cl)cc2c(=O)n1-c1ccc(I)cc1F , which call appears in the assay record?
Result: active

Task: So what was the verdict on COC(=O)[C@@H]1CCCN1C(=O)[C@@H]1CCCN1C(=O)[C@@H](Cc1c[nH]c2ccccc12)NC(=S)Nc1cc(C(F)(F)F)cc(C(F)(F)F)c1 in this test?
Result: inactive

Task: Given Cn1cc(-c2ccc(CNc3cc(-c4cnc5cc(OCCCN6CCCC6)ccn45)ncn3)cc2)cn1 , state the outcome it received in this test.
Result: inactive

Task: Please indicate how the test categorized CCOC(=O)N1CCN(S(=O)(=O)c2oc(-c3ccc(Cl)cc3)nc2C#N)CC1 .
Result: inactive

Task: For Oc1cc(Cl)ccc1Oc1ccc(Cl)cc1Cl , which call appears in the assay record?
Result: inactive

###

# Test system: SF-268 CNS
# Assay Summary: NCI tumour cell line growth inhibition, 48 h
Reported TGI is given for each of the following compounds.

Some solved cases for reference:
CCCCCCCCCCCC1N=C(N)NC(CCCO)=C1C(=O)OC (centres undefined) ... 5.81 µM
Cc1ccc2c(c1)ncn2-c1ncnc2c1CC(C)c1ccccc1N2C (centres undefined) ... 15.6 µM
CC(=O)NC(CCCN(Cc1ccccc1)C(=O)N(CCCl)N=O)C(=O)NCc1ccccc1 (centres undefined) ... > 100 µM
C=C(Br)CN(CC(=C)Br)C(C)=O ... > 100 µM
C1=NCCOCCN=Cc2ccccc2OCc2cccc(n2)COc2ccccc21 ... > 25 µM

Task: Need TGI of O=[N+]([O-])c1ccc(N=NN2CCCC2)cc1 , thanks.
Result: > 100 µM

Task: What value of measured TGI is listed for CCCCCCCCCCCCC(=O)[O-].CCCCCCCCCCCCC(=O)[O-].CCCCCCCCCCCCC(=O)[O-].CCCCCCCCCCCCC(=O)[O-].[Mo+2].[Mo+2] ?
Result: 45.1 µM

Task: Field request: TGI | item: CCOC(=O)CN1CCSC1=NC#N
Result: > 100 µM

Task: # get_value(readout='TGI', item= CC(C)=CC(=O)CC(=O)C(=O)Nc1ccc(Cl)c(Cl)c1 )
Result: > 100 µM

###

# System: SNB-75 CNS
# Assay Summary: NCI tumour cell line growth inhibition, 48 h
Attribute Measured: TGI

See these solved cases before continuing.
C/C1=C\CC[C@@](C)(O)[C@@H]2CC3[C@@H](OC(=O)C34CC4)[C@@H](O2)[C@H](C)CCC1 (some centres undefined) ... > 100 µM
C/C(=N\NC(N)=O)C(CN(C)C)C(c1ccccc1)c1c(O)c2ccccc2oc1=O (centres undefined) ... > 100 µM
O=C1C=CC(=O)c2c(O)c(N[C@@H](Cc3ccccc3)C(=O)OCc3ccccc3)c(Cl)c(O)c21 ... > 10 µM
O=[N+]([O-])c1ccc(N=NN2CCCC2)cc1 ... > 100 µM

Task: What value of measured TGI is listed for CC(=O)Oc1ccccc1C(=O)C1c2cccc(O)c2C(=O)c2c(O)cccc21 ?
Result: 4.54 µM

Task: Return reported TGI; argument: CCSc1nc(COC(=O)NC)c(COC(=O)NC)n1C
Result: > 100 µM

Task: // returns reported TGI for input S=c1ssc(Sc2ccccn2)c1Cl
Result: 56.8 µM

Task: For the compound shown here, Clc1ncnc2c1nc(C#Cc1ccccc1)n2Cc1ccccc1 , give the reported TGI.
Result: 92.2 µM

Task: TGI lookup needed for Cc1ccc(-c2n[nH]c(=O)[nH]2)cc1 , thanks.
Result: > 100 µM

###

# Tested on: HCT-15 colon
# Assay Summary: NCI tumour cell line growth inhibition, 48 h
Attribute Measured: TGI

COc1ccc(NCC(=O)Nn2c(C)nc3ccc(S(=O)(=O)Nc4ccc(OC)cc4)cc3c2=O)cc1 ... > 100 µM
CCc1c2c(nc3cccc(N)c13)-c1cc3c(c(=O)n1C2)COC(=O)[C@]3(O)CC ... > 100 µM

Moving on to the next compound.
Task: Notebook: pull reported TGI for HCT-15 colon, entry COC(=O)C(=O)C(C(=O)C=C(C)C)C(=O)C(=O)Nc1cccc(C(C)=O)c1 (stereo not drawn)
Result: > 100 µM

###

Recorded TGI, one value per entry.
# Test system: M14 melanoma
# Assay Summary: NCI tumour cell line growth inhibition, 48 h
All answers are understood in µM, so give the number only.

Task: // lookup TGI for Cn1cc(-c2ccc3c(c2)CCN3C(=O)Cc2cccc(C(F)(F)F)c2)c2c(N)ncnc21
Result: 16.2

Task: If you can, please state the reported TGI value of COc1ccc2c(c1)nc(N)c1c3cccnc3cn21 .
Result: 27.9

Task: Form field: reported TGI of CCCCC[C@H]1C/C=C2/C(=O)C(Cl)=C[C@@H]2C/C=C\CCCC(=O)O[C@@H](CCCCC)C/C=C2/C(=O)C(Cl)=C[C@@H]2C/C=C\CCCC(=O)O1
Result: 1.07

Task: For the compound CN(C)c1ccc(/C=C/c2cc[n+](C)c3ccccc23)cc1 , what TGI is on record?
Result: 15.8

Task: For the compound shown here, O=Cc1cc2c(o1)C(=O)c1ccccc1C2=O , give the reported TGI.
Result: 0.367

Task: May I ask what TGI has been recorded for COc1cnc2c(c1)C(=O)c1c-2n(CCCN2CCCC2)c(=O)c2cc(Cl)ccc12 ?
Result: 11.8

Task: Which measured TGI value corresponds to O=C(O)c1cc2c(s1)C(=O)c1sccc1C2=O ?
Result: 2.91

Task: Return reported TGI; argument: CS(=O)(=O)Nc1cc(-c2ccc3ncnc(Nc4ccc5c(cnn5Cc5ccc(F)cc5)c4)c3c2)cnc1Cl
Result: 17

Task: I'd like to know its TGI. The compound in question is Cc1c2ccncc2c(C)c2c1[nH]c1ccc(OC(C)(C)C)cc12
Result: 14.9

Task: Form field: reported TGI of Clc1ccc(CN2COc3c(cc(Cl)c4cccnc34)C2)cc1
Result: 3.82

Task: Please report the recorded TGI for Cc1cc(N2CCCC2)nc(N(CCCNc2ccnc3cc(Cl)ccc23)Cc2ccc3c(c2)OCO3)n1 .
Result: 3.04

Task: Reported TGI for CC1CC[C@@]2(OC1)OC1C[C@H]3[C@@H]4CC[C@H]5CC(OC6OC(CO)C(OC7OC(CO)C(O)C(O)C7O)C(O)C6O)CCC5(C)[C@H]4CCC3(C)C1[C@@H]2C (some centres not stated) : what is it?
Result: 18.2

Task: // query TGI value for entry NCCCc1ccc2oc3ccccc3c2c1
Result: 30.1

###

# System: SW-620 colon
# Assay Summary: NCI tumour cell line growth inhibition, 48 h
The following compounds are listed with their measured TGI values.

Task: Quick one: TGI of NC1=Nc2ccccc2Sc2nnc(-c3ccc(Cl)cc3)n21 ?
Result: > 100 µM

Task: State the recorded TGI for this entry: CC(=O)O[C@]12CCC[C@H]1C1(O)C(O)CCC[C@H]12 (some centres undefined)
Result: > 100 µM
